- assay system: T1, NACC1 BEN R421A (human, UniProt Q96RE7 341-477, R421A)
- T1 sequence: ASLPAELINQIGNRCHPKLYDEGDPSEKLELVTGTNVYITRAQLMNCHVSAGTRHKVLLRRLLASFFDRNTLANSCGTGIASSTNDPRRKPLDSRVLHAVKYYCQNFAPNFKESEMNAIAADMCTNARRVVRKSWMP
- procedure summary: ITC; ITC: 20 mM Tris pH 7.5, 200 mM NaCl, 2 mM beta-mercaptoethanol, 20 C; EMSA: 20 mM Tris pH 7.0, 200 mM NaCl, 2 mM DTT, 4 C, 1.2% agarose in TAE
- condition summary: protein: recombinant; tags: His-SUMO or His-MBP, cleaved; blunt, self-complementary
assay endpoint: pKd
One number for each entry, as −log10 of the molar value.

query: Read the entry 12-CATG (dsDNA) DNA 1: ATTACATGTAAT DNA 2: ATTACATGTAAT and write its reported pKd.
result: 5.34
